Below is a list of entries, each paired with its recorded CC50 at 48 h value.
assay: Cytotoxicity against MDCK cells after 48 hrs by MTT assay
Type: cell-based, Canis lupus familiaris
conditionContext: dog, read-out: CTD50
Could you give me the number in µM? Just the number is fine.

molecule: CC1(C)[C@@H]2CC[C@@]1(C)/C(=N/C1CC1)C2
unitDescriptor: µM
endpointValue: 1660
//
molecule: CCCCCC/N=C1\C[C@H]2CC[C@]1(C)C2(C)C
unitDescriptor: µM
endpointValue: 468

Shift focus to the following entry.
Need CC50 at 48 h of CCCCCCCCCCCC/N=C1\C[C@H]2CC[C@]1(C)C2(C)C , thanks.
62.1

----------
Below is a list of entries, each paired with its recorded selectivity ratio value.
Test system: Influenza A virus (A/Puerto Rico/8/34(H1N1))
assay: Selectivity index, ratio of CTD50 for MDCK cells to ED50 for Influenza A virus (A/Puerto Rico/8/34(H1N1))
Assay type: toxicity
conditionContext: dog, read-out: Selectivity Index
Counter-ions that a name gives are not always drawn.
Would you mind answering with just the numeric figure?

Worked examples follow.
compound: CCCCCC/N=C1\C[C@H]2CC[C@]1(C)C2(C)C
selectivity ratio: 16
--
compound: CCCC/N=C1\C[C@H]2CC[C@]1(C)C2(C)C
selectivity ratio: 417
--
compound: CCCCC/N=C1\C[C@H]2CC[C@]1(C)C2(C)C
selectivity ratio: 66
--
compound: CC1(C)[C@@H]2CC[C@@]1(C)/C(=N/C1CC1)C2
selectivity ratio: 2
--
compound: CC12CCC(CC1=O)C2(C)C (stereo unspecified)
selectivity ratio: 2

Give selectivity ratio (Influenza A virus (A/Puerto Rico/8/34(H1N1))) of the following compound: NC12CC3CC(CC(C3)C1)C2
4

Give selectivity ratio (Influenza A virus (A/Puerto Rico/8/34(H1N1))) of the following compound: CCCCCCCCCC/N=C1\C[C@H]2CC[C@]1(C)C2(C)C
5

Give selectivity ratio (Influenza A virus (A/Puerto Rico/8/34(H1N1))) of the following compound: CC(N)C12CC3CC(CC(C3)C1)C2 (stereo unspecified) [RIMANTADINE HYDROCHLORIDE]
4

Give selectivity ratio (Influenza A virus (A/Puerto Rico/8/34(H1N1))) of the following compound: CCCCCCCC/N=C1\C[C@H]2CC[C@]1(C)C2(C)C
10

----------
assay: Cytotoxicity against MDCK cells after 48 hrs by MTT assay
Assay type: cell-based, Canis lupus familiaris
conditionContext: dog, read-out: CTD50
Below is a list of entries, each paired with its recorded CC50 at 48 h value.

Worked examples follow.
compound: CC(N)[C@@H]1C[C@H]2CC[C@@H]1C2 (stereo partly drawn)
CC50 at 48 h: 1.26 to 1.27 mM
//
compound: CCC/N=C1\C[C@H]2CC[C@]1(C)C2(C)C
CC50 at 48 h: > 2.59 mM

Shift focus to the following entry.
Need CC50 at 48 h of NC12CC3CC(CC(C3)C1)C2 [AMANTADINE] , thanks.
0.28 to 0.284 mM
